Biological target: T1, 1F
T1 construct: also called HLA-A2 / point-mutant NY-ESO peptide 1F complex on T2 cells
Assay: flow cytometry on peptide-pulsed T2 cells, scFv 100 nM
Given measured standardized gMFI, output Met if it is greater than or equal to 0.6 and Not met if not.

BINDER	ASSIGNED_CATEGORY
NYA-1163 (scFv) scFv: GEVQLVESGGGVVQPGRSLTPSCSASGFSIRSYDIHWVRLAPGKGLEWVATISYDGSQKYFADSVKGRFTIFRDESENMVYLQMSGLRVEDTAVYHCARGSSGHYEAFDIWGQGTMVTVSSGGGGSGGGGSGGGGSQSVLTQPPSVSAAPGQKVTISCSGSSSNIGNNYVSWYQQLPGTAPKLLIYDNNKRPSGIPDRFSGSKSGTSATLGITGLQTGDEADYYCGTWDSSLSAPWVFGGGTKVTVLGAAAGAGGDYKDDDDKGAAAHHHHHH	Not met
NYA-2044 (scFv, also called NYA-2044 tag adduct) scFv: GEVQLVESGGGLVQPGGSLRLSCAASGFSIRSYDIHWVRLAPGKGLEWVATISYDGSQKYYADSVKGRFTISRDESKNTLYLQMNSLRAEDTAVYHCARGSSGHYEAFDIWGQGTLVTVSSGGGGSGGGGSGGGGSQSVLTQPPSVSAAPGQKVTISCSGSSSNIGNWYVSWYQQLPGTAPKLLIYDNNKRPSGIPDRFSGSKSGTSATLGITGLQTGDEADYYCGTWDSSLSAPWVFGGGTKVTVLGAAAGAGGDYKDDDDKGAAAHHHHHH	Met
NYA-2061 (scFv, also called NYA-2061 tag adduct) scFv: GEVQLVESGGGLVQPGGSLRLSCAASGFSIRSYDIHWVRQAPGKGLEWVATISYDGSQKYYADSVKGRFTISRDESKNTLYLQMNSLRAEDTAVYHCARGSSGHYEAFDIWGQGTLVTVSSGGGGSGGGGSGGGGSQSVLTQPPSASGTPGQRVTISCSGSSSNIGNWYVSWYQQLPGTAPKLLIYDNNKRPSGVPDRFSGSKSGTSASLAISGLQSEDEADYYCGTWDSSLSAPWVFGGGTKLTVLGAAAGAGGDYKDDDDKGAAAHHHHHH	Not met
NYC-0003 (scFv, not shown: small tags and cut ends, also called 3M4E5 scFv; NYC-0003 tag adduct) scFv: EVQLLESGGGLVQPGGSLRLSCAASGFTFSTYQMSWVRQAPGKGLEWVSGIVSSGGSTAYADSVKGRFTISRDNSKNTLYLQMNSLRAEDTAVYYCAGELLPYYGMDVWGQGTTVTVSSGGGGSGGGGSGGGGSQSELTQPRSVSGSPGQSVTISCTGTSRDVGGYNYVSWYQQHPGKAPKLIIHDVIERSSGVPDRFSGSKSGNTASLTISGLQAEDEADYYCWSFAGSYYVFGTGTDVTVL	Met
NYA-2027 (scFv) scFv: GEVQLVESGGGVVQPGRSLTPSCSASGFSIRSYDIHWVRQAPGKGLEWVATISYDGSQKYFADSVKGRFTIFRDESENMVYLQMSGLRVEDTAVYHCARGSSGHYEAFDIWGQGTMVTVSSGGGGSGGGGSGGGGSQSVLTQPPSVSAAPGQKVTISCSGSSSNIGNNYVSWYQQLPGTAPKLLIYDNNKRPSGIPDRFSGSKSGTSATLGITGLQTGDEADYYCGSWDSSLSAPWVFGGGTKVTVLGAAAGAGGDYKDDDDKGAAAHHHHHH	Not met
